Recorded values, source patent US20110091971A1.

Can you tell me Sox 17 Intensity average for the items I'm about to list?
# Test system: H1 or H9 human embryonic stem cells
# run_description: Activin A bioassay: differentiation of human embryonic stem cells to definitive endoderm, cell number and SOX17 intensity by high content analysis (96-well, four days);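 also: total fluorescence of the cell multiplied by cell area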
# Type: cell-based
# measurement_conditions: supernatant concentration 10x, assay dilution 1:20

Some entries whose results are on file:
ACTN32: activin A variant peptide, SEQ ID 33 (protein) GLECDGKVNLCCKKQDFVSFKDIGWNDWIIAPSGYHANRCGGKCPSHIAGTSGSSLSFHSTVINHYRMRGHSPFSNMGSCCIPTKLRPMSMLYYDDGQNIIKKDIQNMIVEECGCS
3.97E+04
ACTN5: activin A variant peptide, SEQ ID 6 (protein) GLECDGKVNYCCKKQNFVSFKDIGWNDWIIAPSGYHANECSGKCPSHIAGTSGSSLSFHSTVINHYRMRGHSPFSNLGACCIPTKLRPMSMLYYDDGQNIIKKDIQNMIVEECGCS
1.031E+07
OriGene wildtype: wildtype human activin A expressed from commercial OriGene construct (Cat. No. TC118774, pCMV6-XL4); supernatant used as positive control (protein, UniProt P08476 311-426, looked up, Inhibin beta A chain activin A homodimer) Inhibin beta A chain: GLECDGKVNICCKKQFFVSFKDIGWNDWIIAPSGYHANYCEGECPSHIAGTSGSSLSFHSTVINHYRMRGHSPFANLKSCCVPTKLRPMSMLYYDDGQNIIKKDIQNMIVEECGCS
2.035E+08
ACTN39: activin A variant peptide, SEQ ID 40 (protein) GLECDGKVNLCCKKQNFVSFKDIGWNDWIIAPSGYHANECSGLCPSHIAGTSGSSLSFHSTVINHYRMRGHSPFSDMGSCCVPTKLRPMSMLYYDDGQNIIKKDIQNMIVEECGCS
1.31E+06
ACTN4: activin A variant peptide, SEQ ID 5 (protein) GLECDGKVNLCCKKQLFVSFKDIGWNDWIIAPSGYHANHCSGLCPSHIAGTSGSSLSFHSTVINHYRMRGHSPFSDMGACCVPTKLRPMSMLYYDDGQNIIKKDIQNMIVEECGCS
2.385E+08
ACTN76: activin A variant peptide, SEQ ID 77 (protein) GLECDGKVNICCKKQLFGQTKDIGWNDWIIAPSGYHGGGCSGECPSHIAGTSGSSLSFHSTVINHYRMRGHSPNANLKSCCSPTKLRPMSMLYYDDGQNIIKKDIQGMKVEECGCT
1.43E+06
ACTN43: activin A variant peptide, SEQ ID 44 (protein) GLECDGKVNYCCKKQDFVSFKDIGWNDWIIAPSGYHANRCDGKCPSHIAGTSGSSLSFHSTVINHYRMRGHSPFSDMGACCVPTKLRPMSMLYYDDGQNIIKKDIQNMIVEECGCS
2.13E+05
ACTN53: activin A variant peptide, SEQ ID 54 (protein) GLECDGKVNICCKKQEFGQAKDIGWNDWIIAPSGYHGGGCSGECPSHIAGTSGSSLSFHSTVINHYRMRGHSPWANLKSCCSPTKLRPMSMLYYDDGQNIIKKDIQGMKVEECGCT
1.51E+06
ACTN28: activin A variant peptide, SEQ ID 29 (protein) GLECDGKVNYCCKKQLFVSFKDIGWNDWIIAPSGYHANHCSGKCPSHIAGTSGSSLSFHSTVINHYRMRGHSPFANMGSCCIPTKLRPMSMLYYDDGQNIIKKDIQNMIVEECGCS
4.87E+07
ACTN79: activin A variant peptide, SEQ ID 80 (protein) GLECDGKVNICCKKQSFGQAKDIGWNDWIIAPSGYHGGGCTGECPSHIAGTSGSSLSFHSTVINHYRMRGHSPWANLKSCCSPTKLRPMSMLYYDDGQNIIKKDIQRMVVEECGCT
3.83E+05

For every item below, please supply its Sox 17 Intensity average.
1. ACTN16: activin A variant peptide, SEQ ID 17 (protein) GLECDGKVNLCCKKQLFVSFKDIGWNDWIIAPSGYHANHCSGLCPSHIAGTSGSSLSFHSTVINHYRMRGHSPFSQMGACCVPTKLRPMSMLYYDDGQNIIKKDIQNMIVEECGCS
2. ACTN75: activin A variant peptide, SEQ ID 76 (protein) GLECDGKVNICCKKQSFGQAKDIGWNDWIIAPSGYHGGGCSGECPSHIAGTSGSSLSFHSTVINHYRMRGHSPWANLKSCCSPTKLRPMSMLYYDDGQNIIKKDIQRMKVEECGCT

["5.55E+07", "3.91E+05"]
